src = patent US20200339692A1

Can you tell me kon for the items I'm about to list?
target: T1, human PD-L1 (Cat. #10084-H08H, Sino Biological) (human, UniProt Q9NZQ7 19-239); test: SPR, Biacore X100, 1:1 Langmuir
T1 construct: Bought recombinant protein used in the Biacore test; also called hPDL1; hPD-L1
T1 sequence (Q9NZQ7 19-239 limits assumed): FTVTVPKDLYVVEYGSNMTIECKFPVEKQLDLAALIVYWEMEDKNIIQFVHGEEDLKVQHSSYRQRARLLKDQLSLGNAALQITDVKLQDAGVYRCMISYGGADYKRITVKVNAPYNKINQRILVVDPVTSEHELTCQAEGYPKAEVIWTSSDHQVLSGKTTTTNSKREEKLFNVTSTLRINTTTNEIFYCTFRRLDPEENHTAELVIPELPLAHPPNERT
Answers are plain numbers, in M⁻¹ s⁻¹.

>>> measured_result("H15L61 (antibody, human IgG1, kappa, V domains shown, also called 24D5 H15 and 24D5 L61) VH: QVQLVQSGAEVKKPGASVKVSCKANGYTFTDKWMMWVRQAPGQGLEWMGRITPSSGFAMYNEKFKNRVTMTRDTSTSTVYMELSSLRSEDTAVYYCARGGSSYDYFDYWGQGTTVTVSS VL: DIVLTQSPASLAVSPGQRATITCRASESVSIHGTHLMHWYQQKPGQPPKLLIYAASNLESGVPARFSGSGSGTDFTLTINPVEAEDTANYYCQQSFEDPLTFGQGTKLEIKR")
"2.43e+06"

# input I would be grateful if you could share the reported kon for H6L11 (antibody, human IgG1, kappa, V domains shown, also called 9-2 H6 and 9-2 L11) VH: QVQLQESGPGLVKPSQTLSLTCTVSGGSISNDYWTWIRQHPGKGLEYIGFISRAGSTYNTPSLKGRVTISRDTSKNQFSLKLSSVTAADTAVYYCARSGGWLAPFDYWGRGTLVTVSS VL: DIVMTQSPDSLAVSLGERATINCKSSQSLFYHSNQKHSLAWYQQKPGQPPKLLIYGASTRESGVPDRFSGSGSGTDFTLTISSLQAEDVAVYYCQQYYGYPYTFGGGTKVEIKR .
# output 495000
